Source: PubChem BioAssay (NCI)

# System: TK-10 renal
# Procedure details: NCI tumour cell line growth inhibition, 48 h
Reported property: TGI (µM)
Number in µM, nothing else.

Molecule: Nc1ccc(-c2nc3cc(F)ccc3s2)cc1I
TGI (µM): 21.1

Molecule: COc1ccc(Nc2ccnc(NCCNc3ccnc4cc(Cl)ccc34)n2)cc1
TGI (µM): 10.5

Molecule: CC1(C)CN(c2ccccc2)C(=O)C1OC(=O)[C@@]1(C)C[C@@H]2C=C[C@H]1C2 (some centres not stated)
TGI (µM): 64.7

Molecule: CN(C)c1ccc(C(=O)c2ccc(N(C)C)c(N)c2)cc1N
TGI (µM): 98.6

Molecule: CCN(CC)CC(=O)/C=C/c1ccc(C)cc1
TGI (µM): 74.8

INPUT: Which TGI value is on record for `Cc1[nH]c(C(=O)Nc2ccc(C(=O)N3CCNCC3)cc2OC(C)C)c(Cl)c1Cl` ?
OUTPUT: 3.32

INPUT: Which TGI value is on record for `CC(=N\O)/C(C)=N/O.CC(=N\O)/C(C)=N/O.CC(=N\O)/C(C)=N/O.CC(=N\O)/C(C)=N/O.[Cu].[Cu]` ?
OUTPUT: 33.2

INPUT: Which TGI value is on record for `CC1=C(SCc2ccccc2)C(=O)c2ccccc2C1=O` ?
OUTPUT: 36.9

INPUT: Which TGI value is on record for `N#CC(C#N)=Cc1c(O)ccc2ccccc12` ?
OUTPUT: 32.2

----------
# Tested on: IGROV1 ovarian
# Procedure details: NCI tumour cell line growth inhibition, 48 h
Reported property: TGI (µM)
Number in µM, nothing else.

Smiles input: CCCCCCOc1ccc(/C=N/NC(N)=S)cc1
System tested: IGROV1 ovarian
TGI [µM]: 5.36

Proceed to the following item.
INPUT: Which TGI value is on record for `COc1ccc(/C=C(\C(=C/c2ccc(OC)cc2)[N+](=O)[O-])[N+](=O)[O-])cc1` ?
OUTPUT: 15.4

----------
Listed here are molecules together with their documented TGI.
# Test system: HCC-2998 colon
# Procedure details: NCI tumour cell line growth inhibition, 48 h

Molecule: NS(=O)(=O)c1ccc(C2C3=C(CCCC3=O)OC3=C2C(=O)c2ccccc2C3=O)cc1 (stereo not given)
System tested: HCC-2998 colon
TGI: 3.11 µM

Molecule: O=C1CCC2(CC1CCSc1ccccc1)OCCO2 (stereo not given)
System tested: HCC-2998 colon
TGI: > 100 µM

Molecule: COc1ccc(/C=C(\C(=C/c2ccc(OC)cc2)[N+](=O)[O-])[N+](=O)[O-])cc1
System tested: HCC-2998 colon
TGI: 30.9 µM

Molecule: Cc1[nH]c(C(=O)Nc2ccc(C(=O)N3CCNCC3)cc2OC(C)C)c(Cl)c1Cl
System tested: HCC-2998 colon
TGI: 3.38 µM

Molecule: CC(C)(C)OC(=O)NC(Cc1ccc(O)cn1)C(N)=O (stereo not given)
System tested: HCC-2998 colon
TGI: > 100 µM

Molecule: COc1ccc(S(=O)(=O)N/N=C/CN2C(=O)c3ccccc3C2=O)cc1OC
System tested: HCC-2998 colon
TGI: > 100 µM

INPUT: Which TGI value is on record for `CCOP(=O)(OCC)/C(=C\N1C(=O)CC(=O)NC1=S)C(=O)OC` ?
OUTPUT: > 100 µM

INPUT: Which TGI value is on record for `CS(=O)(=O)N(CCC#N)c1ccc(/C=N/NC(=O)CC(=O)Nc2cccc(Cl)c2)cc1` ?
OUTPUT: > 100 µM

INPUT: Which TGI value is on record for `O=c1[nH]c2ccccc2nc1/C=C(\O)C(F)F` ?
OUTPUT: > 100 µM

INPUT: Which TGI value is on record for COc1ccc(-c2nsc3c2NC(=O)CC3c2ccc3c(c2)OCO3)cc1 (stereo not given) ?
OUTPUT: 6.37 µM

INPUT: Which TGI value is on record for `O=C(NNc1cn[nH]c(=O)c1Cl)/C(=C/c1ccc2c(c1)OCO2)NC(=O)c1ccccc1` ?
OUTPUT: > 100 µM
